target: Histone-lysine N-methyltransferase EHMT2 (Homo sapiens); experiment: qHTS Assay for Inhibitors of Histone Lysine Methyltransferase G9a; conditions: G9a H3K9 monomethylation, AlphaScreen, 2 h; series mostly up to 59 µM; further: nearly all actives have a fitted effect of over 75% in size
Screen size: about 350,000 compounds; about 31,000 (8.9%) were called active. Roughly 15% stayed inconclusive and do not appear here. The call rests on the fitted dose curve; in most records, active means well fitted inhibition curve with a large enough effect; inconclusive means small, poorly fitted or top-dose-only effect; inactive means no such curve, though single readings can be large or run the other way. Many of the other results were omitted from the sample, so actives are more common in it than they were.
Tick one outcome: active, inactive

Some solved cases for reference:
>>> qualitativelabel("Cc1onc(-c2c(F)cccc2Cl)c1C(=O)N(C)CC(=O)Nc1cccc(F)c1")
"inactive"
>>> qualitativelabel("O=c1[nH]c(N2CCOCC2)nc2ccccc12")
"inactive"
>>> qualitativelabel("Cc1nn(C)c(Oc2ccccc2)c1[N+](=O)[O-]")
"inactive"
>>> qualitativelabel("Brc1ccccc1CN1CCC(Cc2ccccc2)CC1")
"active"
>>> qualitativelabel("COc1ccc(N2CCN(C(=O)COC(=O)c3cccc(S(=O)(=O)Nc4ccccc4OC)c3)CC2)cc1")
"active"
>>> qualitativelabel("COc1ccc(CCc2nc(-c3cccs3)no2)cc1")
"inactive"

Query string: Answer briefly: the call reported for Cc1ccc(-c2nc(CS(=O)(=O)CC(=O)NCc3ccccc3Cl)c(C)o2)cc1 in this assay.
Result string: inactive

Query string: Answer briefly: the call reported for COc1ccc(SCc2cc(=O)c3ccc(C)c(C)c3[nH]2)cc1 in this assay.
Result string: inactive

Query string: Answer briefly: the call reported for Cc1cccc(Oc2c([N+](=O)[O-])c(=O)n(C)c3ccccc23)c1 in this assay.
Result string: active

Query string: Answer briefly: the call reported for Cc1cc(C)c2oc(C(=O)Nc3ccc(S(=O)(=O)N4CCCCCC4)cc3)cc(=O)c2c1 in this assay.
Result string: inactive

Query string: Answer briefly: the call reported for O=C1/C(=C\c2cccnc2)CN(Cc2ccccc2)C/C1=C\c1cccnc1 in this assay.
Result string: inactive
